test system: ragweed (common ragweed, Ambrosia elatior); assay: Test A preemergence, ragweed; type: in vivo; details: 500 g ai/ha, 0 to 100 scale (0 no effect, 100 complete control)
readout.label: Plant response rating, Ragweed

Would you please look over these solved cases?
# compound, Plant response rating, Ragweed
records = [
    ("O=C1NCC(c2cccc(OCC3CC3)c2)C1C(=O)Nc1cccc(F)c1F (centres unmarked)", 0),
    ("O=C1NCC(c2cccc(COc3ccccc3)c2)C1C(=O)Nc1ccccc1F (centres unmarked)", 0),
    ("O=C1NCC(c2cccc(OCc3ccccc3)c2)C1C(=O)Nc1cccc(F)c1F (centres unmarked)", 0),
    ("O=C1NCC(c2cccc(COc3ccccc3)c2)C1C(=O)Nc1ccccc1Cl (centres unmarked)", 0),
]

Prompt: Sample O=C1NCC(c2cccc(OCC3OCCO3)c2)C1C(=O)Nc1ccccc1Cl (centres unmarked) — what was its Plant response rating, Ragweed?
Response: 20

====

Tested on: foxtail, giant (Setaria faberii)
Experiment: Test A preemergence, giant foxtail
Assay type: in vivo
Settings: 125 g ai/ha, 0 to 100 scale (0 no effect, 100 complete control)
From the text: Test A Seeds of plant species selected from barnyardgrass (Echinochloa crus-galli), kochia (Kochia scoparia), ragweed (common ragweed, Ambrosia elatior), ryegrass, Italian (Lolium multiflorum), foxtail, giant (Setaria faberii), and pigweed (Amaranthus retroflexus), were planted into a blend of loam soil and sand and treated preemergence with a directed soil spray using test chemicals formulated in a non-phytotoxic solvent mixture which included a surfactant. […]
readout.label: Plant response rating, Foxtail, Giant
Give only the figure.

Would you please look over these solved cases?
# molecule, test.target, Plant response rating, Foxtail, Giant
rows = [
    ("O=C1NCC(c2cccc(Oc3ccc(F)cn3)c2)C1C(=O)Nc1ccccc1F (single isomer, unassigned)", "foxtail, giant (Setaria faberii)", 90),
    ("CC1(COc2cccc(C3CNC(=O)C3C(=O)Nc3ccccc3C(F)(F)F)c2)COC1 (stereo not shown)", "foxtail, giant (Setaria faberii)", 10),
    ("O=C1NCC(c2cccc(Oc3ncc(F)cc3F)c2)C1C(=O)Nc1cccc(F)c1F (single isomer, unassigned)", "foxtail, giant (Setaria faberii)", 90),
    ("O=C1NCC(c2cccc(OCC3CC3)c2)C1C(=O)Nc1ccc(F)cc1F (stereo not shown)", "foxtail, giant (Setaria faberii)", 60),
    ("O=C1NCC(c2cccc(Oc3ccc(C(F)(F)F)cn3)c2)C1C(=O)Nc1cccc(F)c1F (single isomer, unassigned)", "foxtail, giant (Setaria faberii)", 90),
]

Prompt: Sample O=C1NCC(c2cccc(OCC3OCCO3)c2)C1C(=O)Nc1ccccc1Cl (stereo not shown) — what was its Plant response rating, Foxtail, Giant?
Response: 70

Prompt: Sample O=C1NCC(c2cccc(Oc3ccc(F)cn3)c2)C1C(=O)Nc1cccc(F)c1F (single isomer, unassigned) — what was its Plant response rating, Foxtail, Giant?
Response: 90

====

system: foxtail, giant (Setaria faberii); assay: Test A preemergence, giant foxtail; type: in vivo; details: 500 g ai/ha, 0 to 100 scale (0 no effect, 100 complete control)
Reported Plant response rating, Foxtail, Giant by item:

Would you please look over these solved cases?
# compound, Plant response rating, Foxtail, Giant
measured = [
    ("O=C1NCC(c2cccc(OCc3ccccc3)c2)C1C(=O)Nc1ccccc1Cl (centres unmarked)", 0),
    ("CN1CC(c2cccc(Sc3ccccc3)c2)C(C(=O)Nc2cccc(F)c2F)C1=O (single isomer, unassigned)", 90),
    ("O=C1NCC(c2cccc(Oc3ccccn3)c2)C1C(=O)Nc1ccccc1Cl (centres unmarked)", 50),
]

Prompt: Sample O=C1NCC(c2cccc(OCC3OCCO3)c2)C1C(=O)Nc1ccccc1Cl (centres unmarked) — what was its Plant response rating, Foxtail, Giant?
Response: 90

Prompt: Sample CON=Cc1cccc(C2CN(C)C(=O)C2C(=O)Nc2ccccc2F)c1 (centres unmarked) — what was its Plant response rating, Foxtail, Giant?
Response: 90

Prompt: Sample CC1(COc2cccc(C3CNC(=O)C3C(=O)Nc3ccccc3F)c2)COC1 (centres unmarked) — what was its Plant response rating, Foxtail, Giant?
Response: 90

Prompt: Sample O=C1NCC(c2cccc(OCc3ccccc3)c2)C1C(=O)Nc1ccc(F)cc1F (centres unmarked) — what was its Plant response rating, Foxtail, Giant?
Response: 0

Prompt: Sample O=C1NCC(c2cccc(OCC3OCCO3)c2)C1C(=O)Nc1ccccc1F (centres unmarked) — what was its Plant response rating, Foxtail, Giant?
Response: 90
